# credit: the supplement of paper PMC9170038

Tested on: MS2 coat protein
Assay: apparent KD of MS2 coat protein; designed switch direction (-1 OFF switch, 1 ON switch): -1; higher = weaker reporter binding
Details: Eterna round: R95; input ligand: microRNA oligo, concentration not stated
Recorded apparent KD of MS2 coat protein by entry
// return numeric value only (unit: nM, not printed)

Worked examples follow.
I am curious: what apparent KD of MS2 coat protein value has been reported for CAUACUCAAGUGAGGAUAUAGUCUCGGAUACGGAACUAGAAGGCACAUGAGGAUCACCCAUGUAGAGAGUAAAG [EX-4 Malc #28] (puzzle: Brourd's mod of Exclusion 4) ?
22.8

Would you mind telling me what apparent KD of MS2 coat protein value was observed for UUUUUGUCAGGAUAUGACUAGAUGCACGUUAGUGUAUUUACUUAGAAGGGACAUGAGGAUCACCCAUGUAUUCC [Bring Us a Shrubbery-13] (puzzle: Exclusion 4) ?
26.2

Which apparent KD of MS2 coat protein reading was recorded for the sequence AUCGUGAAGAAGGAUAUGGGCCCGGUAAAACGACUAGAAGGUCUGACAUGAGGAUCACCCAUGUGAUACCAAAA [Veve] (puzzle: Exclusion 6) ?
42.9

Name the reported apparent KD of MS2 coat protein value associated with the sequence CGGUACUGAGGAUAUACAUGAGGAUCACCCAUGUGUUCCAGCUAGCGUACUGGCAUUAGUAGAAGGCGGUGCUG [JL-ex3-3.17 Brourd mod] (puzzle: Exclusion 3)
12.8

Look at this sequence and give its reported apparent KD of MS2 coat protein. AGCAUGGUAGGAUAUACGGAACAUUAGGGUUUGUUGUGUGGACAUGAGGAUCACCCAUGUAGAAGGGCCGUGCA [Mat - Exclusion 2 - Mod of JL - D81] (puzzle: Exclusion 2)
33.7

# lookup: apparent KD of MS2 coat protein of AGUCUGCGAGGAUAUACAUGAGGAUCACCCAUGUGCGAGAUACUAGUGAGGUCGAUUGGUAGAAGGCGCGGACG [Mat - Exclusion 3 - Mod of JL D85] (puzzle: Exclusion 3)
93.1

New cases:
Return reported apparent KD of MS2 coat protein; argument: CUUUUGUGAGGAUAUCAGUAGUUAAAAAAUAAAAUUACUACUGAGAAGGCACAUGAGGAUCACCCAUGUUCCUC [salish99_ex4_r3_016] (puzzle: Exclusion 4)
40.5

Fill in the blank: the reported apparent KD of MS2 coat protein of CUAUCAAGCAAGGAUAUGCAAAUAAUUAUUUAUGCAGAAGGUGCAACAUGAGGAUCACCCAUGUUUCUGGGUUU [JR_E6_Sub048] (puzzle: Exclusion 6) is ____.
44.9

Sample ACCCAACAUGAGGAUCACCCAUGUCAGGAUAUCCAUCACUAUCACGAAAGGAUAGGAUGGAGAAGGGACAGAGG [ChP 04-04-2015 #3] (puzzle: Exclusion 1) — what was its apparent KD of MS2 coat protein?
99.8

Consider the sequence shown here: GAUACACAUGAGGAUCACCCAUGUGAGGAUAUGAUACUAUGUACUUCGGUACAUAGUAUCAGAAGGCACAUUGA [Ex1-3: 44] (puzzle: Exclusion 1) What is its recorded apparent KD of MS2 coat protein?
61.2

So what does the record say about apparent KD of MS2 coat protein for AGUAGAUCUACGCUUGCGUGGAUCUGCAAUGCAGGUGUUACAUGAGGAUCACCCAUGUCCUCAUUUGUUCGUCUUAG [JL turnoff v2 99.09] (puzzle: Sensor v3, turn-off variant 2) ?
322

----------
Tested on: MS2 coat protein
Assay: apparent KD of MS2 coat protein; designed switch direction (-1 OFF switch, 1 ON switch): -1; higher = weaker reporter binding
Conditions: input ligand: FMN 200 uM
Measured apparent KD of MS2 coat protein values are reported for all entries that follow.
Output spec: scalar in nM, unitless text.

# input sequence: UUAAAUAAUGUAGGAUAUGCAAGGCGAACCUAAGCAGAAGGACAUGAGGAUCACCCAUGUAAUGCGGUCUGCGUACAGAUCGCA [JL ENG1 1.01] (Eterna round: R96, puzzle: Exclusion NG 1) ; wanted: its apparent KD of MS2 coat protein
59.4

// apparent KD of MS2 coat protein lookup, key: GCUGGUCGAGGAUAUACAUGAGGAUCACCCAUGUGGUCACGUGACGAUAGUCACGAAUGUAGAAGGCGACCAGC [E3/3-A1] (Eterna round: R97, puzzle: Exclusion 3)
66.9

Now for another entry.
Which apparent KD of MS2 coat protein value is on record for GGUAGUUCAGAUCCACAUGAGGAUCACCCAUGUUAAAGGAUCUAGGAUAUCGGGACAUCGAUGCCCGAGAAGGAGACUUUAGCG [Eternabot solution 39] (Eterna round: R96, puzzle: Exclusion NG 3) ?
173

----------
Tested on: K4 kissing-loop RNA reporter
Assay: apparent KD of K4 kissing-loop reporter; higher = weaker reporter binding
Details: Eterna round: R107; input ligand: FMN 200 uM
readout.label: apparent KD of K4 kissing-loop reporter (nM)
Number in nM, nothing else.

Below are worked cases with known answers.
# apparent KD of K4 kissing-loop reporter lookup, item UUUCGUCUCUGAGGAUAUCAGACGAGAGUGAUGUUCUCCCAAAGCCCAGUGAUGUUGGAUGCUAUCUGAGAAGGCAGUGGGCGAA [Same State FMN B GF 12]
227

Item under review: GAAACGUUGCGGACUAUCGCAUAAAGUCACCGAGGACCGGUACGGCCGCCACUCGCCAGUGAUGUUGGCGUGUUUGCGCGCUGUG [Titebebi] . Reported apparent KD of K4 kissing-loop reporter?
104

Here's the next entry for you.
Please report the recorded apparent KD of K4 kissing-loop reporter for AACCCAUGACUGGAUACCAGACUAUACAUGCUGAGUGAUGUUUAGCGGAGUCAUCUCUCGGUCCCUUGGCAGCCAACGUCACGCG [theeternabot_sameState_KL_Theo_B_33] .
614

----------
List of apparent KD of K4 kissing-loop reporter values.
System: K4 kissing-loop RNA reporter;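 also: bound reporter read as fluorescence of individual clusters on recovered sequencing chips by microscopy, with normalized cluster intensities fitted with a binding model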
Test: apparent KD of K4 kissing-loop reporter; higher = weaker reporter binding
Settings: Eterna round: R107; input ligand: none
Give a bare numeral; the unit nM is implied.

Suppose we examine the sequence GUAGCACUUGACAGUGAUGUUGUCAAGGACAAGGAUAUCAUCUCAAUGAGAAGGUGUCCUUGAUAACAGCUACGGGAAUAUCCCA [Omei KL FMN A Exc D v3] ; what apparent KD of K4 kissing-loop reporter value has been reported?
136

Name the reported apparent KD of K4 kissing-loop reporter value associated with the sequence GAUAUAGUGAUGUUAUAUACUGAUAGACAACGAGGACCGGUACGGCCGCCACUCGAGAGGGUGAAAAUAAUGAUAAAAUAAUAAU [ExyTryA#1]
359

Requested field: apparent KD of K4 kissing-loop reporter. Item: UUUGGUUUCUCGGCCGCCACUCGUGGGAAAUGGGCCUCAGGGAUAUAGUGAUGUUAUGUAAAGAAGAGGACCGGGAGAAGGAAGG [ExTryptoB.Dl]
306

Data request, read-out apparent KD of K4 kissing-loop reporter, for UAAGAAUAAGUAGCAGUGAUGUUGCUACUACGAGGACCGGUACGGCCGCCACUCGAGUCCUCGAAACAUCACUGAACGAGGAAUA [(H,1)-(H,2)-(Trp1)-(Trp2)-(T)'-(H)'-(T)'']
201

# input sequence: GUGCGGCUAGUGAUGUUGGUUGUGUGGGAAGGAGCGCAGAUUCAUGCAGGUAGGUCGCCCACACCUCUGAAAGGAGGCUAAUUCA [KL-SSArg-A16] ; wanted: its apparent KD of K4 kissing-loop reporter
315

Okay, now this sequence:
Quick one: apparent KD of K4 kissing-loop reporter of UCGAACGAUGGAAGGAGCGCUCGUCAGUCCUGCGAGUGAUGUUCGUGGGUAAAUAGUCGCGAGCAGGUAGGUCGCCAUCUUGGGC [Reriat] ?
151

----------
Test system: MS2 coat protein
Assay: apparent KD of MS2 coat protein; designed switch direction (-1 OFF switch, 1 ON switch): 1; higher = weaker reporter binding
Settings: Eterna round: R95; input ligand: microRNA oligo, concentration not stated
readout.label: apparent KD of MS2 coat protein (nM)
Provide the reading as a plain figure in nM.

Please review the following examples before continuing.
// fetch MS2 coat protein apparent KD of MS2 coat protein for GCCGGACAUGAGGAUCACCCAUGUCCUCACUAUACAGGAUAUCGGGUAGGAUCCCUACGGCGAGAAGGGUAUAAAA [Inarquat] (puzzle: Same State 1)
32.2

Form field: apparent KD of MS2 coat protein recorded for ACAAGCUUUUUGCUCAUCUUAUGUCCGAAACAUGAGGAUCACCCAUGUAUAGAUUAUGUGUUGUUGUAGAUACAAGA [JR_SHM208A_Sub063] (puzzle: Sensor for hsa-mir-208a) with MS2 coat protein (enter value)
19.6

For MS2 coat protein, provide apparent KD of MS2 coat protein of GGUGUACAUGAGGAUCACCCAUGUCGACCGCUCACAGGAUAUUUAAUACAAACUGGUAGCGGAGAAGGGUGAGGAA [Oresbeve] (puzzle: Same State 1) please.
95.7

Lab request: please report apparent KD of MS2 coat protein under test system MS2 coat protein for AGAGCCGGCACUGAGGAUAUUCAUAAUAAAACAUGAGGAUCACCCAUGUAGGCCAGAAGGCCUUGGGAGAAGGCAGGUCGGCUCA [Mat - Same State 2 - Mod of UCT - D67] (puzzle: Same State 2)
176

Others:
What value of apparent KD of MS2 coat protein on MS2 coat protein does UGCAUACAUGAGGAUCACCCAUGUCAACGUAGCCGAGGAUAUGGAUUGCCGUGAGGCGUGCCAGAAGGCGGAGAGG [Same State 1 - Mod of Vinnie Teenbexe] (puzzle: Same State 1) have?
42.5
